Molecular target: T1, ActRIIB-Fc homodimer (human, UniProt Q13705 19-137)
T1 construct: extracellular domain; also called unmodified ActRIIB-Fc homodimer; ActRIIB-Fc:ActRIIB-Fc homodimer
T1 sequence (looked up): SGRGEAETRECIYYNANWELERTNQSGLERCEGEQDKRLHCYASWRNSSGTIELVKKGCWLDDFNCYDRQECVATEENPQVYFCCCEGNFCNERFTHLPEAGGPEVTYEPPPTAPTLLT
Assay: SPR (Biacore), anti-Fc capture, ligand in flow
Threshold check on koff: strictly below 0.0002 s⁻¹ is label 1; on or above 0.0002 s⁻¹ is label 0.

Look over these answered cases.
1. GDF3 (ligand, UniProt Q9NR23 251-364, looked up, also called VGR2) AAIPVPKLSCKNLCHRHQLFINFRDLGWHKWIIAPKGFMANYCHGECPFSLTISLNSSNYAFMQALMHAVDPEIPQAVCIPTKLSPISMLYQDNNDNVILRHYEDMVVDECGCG	label 0
2. BMP9 (ligand, UniProt Q9UK05 320-429, looked up, also called GDF2) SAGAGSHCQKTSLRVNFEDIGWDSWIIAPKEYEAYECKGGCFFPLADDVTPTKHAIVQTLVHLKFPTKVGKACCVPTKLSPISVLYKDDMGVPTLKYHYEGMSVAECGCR	label 0
3. GDF11 (ligand, UniProt O95390 299-407, looked up, also called BMP11) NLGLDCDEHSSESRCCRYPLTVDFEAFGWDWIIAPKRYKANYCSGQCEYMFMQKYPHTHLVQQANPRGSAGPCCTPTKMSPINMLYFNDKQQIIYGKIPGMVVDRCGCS	label 1
4. activin A (ligand, UniProt P08476 311-426, looked up) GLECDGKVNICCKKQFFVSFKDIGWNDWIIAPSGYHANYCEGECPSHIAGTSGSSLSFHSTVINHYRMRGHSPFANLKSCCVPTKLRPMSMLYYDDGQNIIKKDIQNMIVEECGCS	label 0

Enquiry: Dear colleague, could you confirm whether koff of activin B (ligand, UniProt P09529 293-407, looked up) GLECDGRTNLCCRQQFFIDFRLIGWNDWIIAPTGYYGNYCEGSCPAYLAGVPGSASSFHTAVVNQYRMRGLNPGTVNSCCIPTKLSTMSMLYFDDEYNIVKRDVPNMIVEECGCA falls below 0.0002 s⁻¹? Thanks.
Return: label 1

Enquiry: // same read-out, input: BMP10 (ligand, UniProt O95393 317-424, looked up) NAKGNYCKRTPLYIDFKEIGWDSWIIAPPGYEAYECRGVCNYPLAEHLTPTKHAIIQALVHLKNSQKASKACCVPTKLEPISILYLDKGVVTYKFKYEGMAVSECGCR
Return: label 0
